Just for reference, patent US10221202B2 is where these values come from.

experiment: Permeability in CALU-3 cells; assay type: in vitro ADME; settings: human; apical-to-basal, CALU-3 monolayers, pH 7.4, 37° C., 10 μM compound
measurementName: Papp A→B at 90 min, 10 μM (×10⁻⁶ cm/s)
# unit: ×10⁻⁶ cm/s | format: bare number

CCn1c(CNC(=O)c2nc(Cl)cnc2N)[n+](CC)c2ccc(OCC(=O)N(Cc3nc(C)ccc3O)C[C@H](C)O)cc21.O=C([O-])C(F)(F)F [Example 2.05] ... 0.4
CC[n+]1c(CNC(=O)c2nc(Cl)cnc2N)n(C[C@@H]2CCCO2)c2cc(OCC(=O)N3CC[S+]([O-])CC3)ccc21.O=C([O-])C(F)(F)F [Example 1.01] ... 0.8
CCn1c(CNC(=O)c2nc(Cl)cnc2N)[n+](CC2CCOCC2)c2ccc(OCC(=O)N(Cc3nc(C)ccc3[O-])C[C@H](C)O)cc21.O=C(O)C(F)(F)F.O=C(O)C(F)(F)F [Example 1.03] ... 0.4
CC[n+]1c(CNC(=O)c2nc(Cl)cnc2N)n(CCO)c2cc(OCC(=O)NCc3ccc(P(C)(C)=O)cc3)ccc21.O=C([O-])C(F)(F)F [Example 1.02] ... 0.6

Next:
For the compound CCn1c(CNC(=O)c2nc(Cl)cnc2N)[n+](CC)c2ccc(OCC(=O)NCCCN)cc21.O=C(O)C(F)(F)F.O=C([O-])C(F)(F)F [Example 2.01] , what Papp A→B at 90 min, 10 μM is on record?
0.2

---

Form field: Papp B→A at 90 min, 10 μM (one value per entry).
test: Permeability in CALU-3 cells; assay type: in vitro ADME; details: human; basal-to-apical, CALU-3 monolayers, pH 7.4, 37° C., 10 μM compound
# unit: ×10⁻⁶ cm/s | format: bare number

Look over these answered cases.
CCn1c(CNC(=O)c2nc(Cl)cnc2N)[n+](CC)c2ccc(OCC(=O)NCCOCP(C)(C)=O)cc21.O=C([O-])C(F)(F)F ... 0.4
CCn1c(CNC(=O)c2nc(Cl)cnc2N)[n+](CC2CCOCC2)c2ccc(OCC(=O)N(Cc3nc(C)ccc3[O-])C[C@H](C)O)cc21.O=C(O)C(F)(F)F.O=C(O)C(F)(F)F ... 0.1
CCn1c(CNC(=O)c2nc(Cl)cnc2N)[n+](CC)c2ccc(OCC(=O)N(Cc3nc(C)ccc3O)C[C@H](C)O)cc21.O=C([O-])C(F)(F)F ... 0.1
CC[n+]1c(CNC(=O)c2nc(Cl)cnc2N)n(CCO)c2cc(OCC(=O)NCc3ccc(P(C)(C)=O)cc3)ccc21.O=C([O-])C(F)(F)F ... 0.3
CCn1c(CNC(=O)c2nc(Cl)cnc2N)[n+](CC)c2ccc(OCC(=O)NCCN(C)C)cc21.O=C[O-] ... 0.2

For the molecule CC[n+]1c(CNC(=O)c2nc(Cl)cnc2N)n(C[C@@H]2CCCO2)c2cc(OCC(=O)N3CC[S+]([O-])CC3)ccc21.O=C([O-])C(F)(F)F , what Papp B→A at 90 min, 10 μM is on record?
0.3

For the molecule CCn1c(CNC(=O)c2nc(Cl)cnc2N)[n+](CC)c2ccc(OCC(=O)NCCCN)cc21.O=C(O)C(F)(F)F.O=C([O-])C(F)(F)F , what Papp B→A at 90 min, 10 μM is on record?
0.5

---

Molecular target: ENaC (Epithelial Sodium Channel) (Mus musculus, UniProt Q61180+Q9WU38+Q9WU39)
Construct: Mouse kidney M-1 cells were cultivated in DMEM; endogenous in cells
Sequence (Q61180 whole entry): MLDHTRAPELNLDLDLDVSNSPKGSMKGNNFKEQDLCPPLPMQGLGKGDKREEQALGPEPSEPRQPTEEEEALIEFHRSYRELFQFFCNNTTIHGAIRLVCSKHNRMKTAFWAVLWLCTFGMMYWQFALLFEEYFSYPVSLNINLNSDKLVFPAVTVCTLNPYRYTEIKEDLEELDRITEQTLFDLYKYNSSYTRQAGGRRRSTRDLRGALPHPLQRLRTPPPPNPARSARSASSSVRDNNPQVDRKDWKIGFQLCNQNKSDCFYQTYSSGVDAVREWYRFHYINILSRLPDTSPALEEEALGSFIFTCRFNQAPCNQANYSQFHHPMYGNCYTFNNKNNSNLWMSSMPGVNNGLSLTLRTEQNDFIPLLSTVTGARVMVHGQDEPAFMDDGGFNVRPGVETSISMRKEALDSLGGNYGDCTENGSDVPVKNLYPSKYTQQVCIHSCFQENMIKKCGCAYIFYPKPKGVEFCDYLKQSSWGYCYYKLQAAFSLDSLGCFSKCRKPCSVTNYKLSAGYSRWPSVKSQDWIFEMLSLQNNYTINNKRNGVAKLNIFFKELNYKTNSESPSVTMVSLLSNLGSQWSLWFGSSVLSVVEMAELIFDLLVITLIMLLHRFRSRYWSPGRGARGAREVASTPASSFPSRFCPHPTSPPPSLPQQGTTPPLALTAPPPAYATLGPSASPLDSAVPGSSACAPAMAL
Sequence (Q9WU38 whole entry): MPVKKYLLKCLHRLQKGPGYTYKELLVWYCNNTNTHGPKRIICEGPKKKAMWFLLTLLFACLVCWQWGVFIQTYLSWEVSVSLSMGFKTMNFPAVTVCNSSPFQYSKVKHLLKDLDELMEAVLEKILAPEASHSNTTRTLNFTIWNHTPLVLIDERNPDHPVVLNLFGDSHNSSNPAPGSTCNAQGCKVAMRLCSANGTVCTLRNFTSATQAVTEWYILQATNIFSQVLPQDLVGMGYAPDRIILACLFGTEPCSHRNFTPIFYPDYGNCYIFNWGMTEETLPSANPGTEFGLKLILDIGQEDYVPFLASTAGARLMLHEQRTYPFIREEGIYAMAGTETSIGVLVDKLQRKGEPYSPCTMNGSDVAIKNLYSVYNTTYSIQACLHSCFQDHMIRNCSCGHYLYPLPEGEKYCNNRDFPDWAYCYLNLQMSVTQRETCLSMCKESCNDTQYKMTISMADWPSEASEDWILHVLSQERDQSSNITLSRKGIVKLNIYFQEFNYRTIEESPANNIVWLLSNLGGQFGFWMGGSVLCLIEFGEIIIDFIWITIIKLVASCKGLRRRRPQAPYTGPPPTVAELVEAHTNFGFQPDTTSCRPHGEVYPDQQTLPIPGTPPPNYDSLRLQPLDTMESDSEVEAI
Sequence (Q9WU39 whole entry): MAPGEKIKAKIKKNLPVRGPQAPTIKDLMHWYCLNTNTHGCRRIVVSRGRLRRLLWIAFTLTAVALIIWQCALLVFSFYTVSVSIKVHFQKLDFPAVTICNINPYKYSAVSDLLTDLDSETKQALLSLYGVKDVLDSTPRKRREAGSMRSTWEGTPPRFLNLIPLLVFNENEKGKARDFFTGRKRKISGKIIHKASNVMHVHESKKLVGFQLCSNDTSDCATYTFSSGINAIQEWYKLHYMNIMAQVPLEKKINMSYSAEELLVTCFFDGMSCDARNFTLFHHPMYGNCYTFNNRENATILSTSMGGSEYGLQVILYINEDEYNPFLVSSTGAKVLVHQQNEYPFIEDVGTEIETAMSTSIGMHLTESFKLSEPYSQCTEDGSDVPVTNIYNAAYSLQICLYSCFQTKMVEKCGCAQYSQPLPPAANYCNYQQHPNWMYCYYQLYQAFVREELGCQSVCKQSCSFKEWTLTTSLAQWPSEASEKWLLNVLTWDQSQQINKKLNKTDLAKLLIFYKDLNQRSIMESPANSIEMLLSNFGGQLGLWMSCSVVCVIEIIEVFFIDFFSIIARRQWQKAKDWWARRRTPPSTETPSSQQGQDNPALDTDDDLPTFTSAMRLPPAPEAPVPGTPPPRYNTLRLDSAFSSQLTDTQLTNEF
Experiment: Ussing Chamber assay (short circuit current, amiloride sensitive I_SC)
Conditions: Mouse kidney M-1 cells, apical application, 37° C.
Description: The IC50 values of the example compounds given above were determined in the Ussing Chamber assay. Ussing Chamber: Mouse kidney M-1 cells were cultivated in DMEM containing 5% FCS and 5 μM dexamethasone for 10 to 12 days on polyester transwell filters. […] Short circuit currents (I_sc) were measured in the voltage-clamp mode with the software package Lab View for data acquisition and analysis. […] Results are expressed as inhibition in percent of the amiloride effect or as IC50.
Form field: IC50 (one value per entry).
# unit: nM | format: bare number

Look over these answered cases.
CCn1c(CNC(=O)c2nc(Cl)cnc2N)[n+](CC2CCOCC2)c2ccc(OCC(=O)N(Cc3nc(C)ccc3[O-])C[C@H](C)O)cc21.O=C(O)C(F)(F)F.O=C(O)C(F)(F)F ... 8
CCn1c(CNC(=O)c2nc(Cl)cnc2N)[n+](CC)c2ccc(OCC(=O)NCCN(C)C)cc21.O=C[O-] ... 1
CC[n+]1c(CNC(=O)c2nc(Cl)cnc2N)n(CCO)c2cc(OCC(=O)NCc3ccc(P(C)(C)=O)cc3)ccc21.O=C([O-])C(F)(F)F ... 10
CCn1c(CNC(=O)c2nc(Cl)cnc2N)[n+](CC)c2ccc(OCC(=O)NCCOCP(C)(C)=O)cc21.O=C([O-])C(F)(F)F ... 3
CC[n+]1c(CNC(=O)c2nc(Cl)cnc2N)n(C[C@@H]2CCCO2)c2cc(OCC(=O)N3CC[S+]([O-])CC3)ccc21.O=C([O-])C(F)(F)F ... 10
CCn1c(CNC(=O)c2nc(Cl)cnc2N)[n+](CC)c2ccc(OCC(=O)N(Cc3nc(C)ccc3O)C[C@H](C)O)cc21.O=C([O-])C(F)(F)F ... 3

For the compound CCn1c(CNC(=O)c2nc(Cl)cnc2N)[n+](CC)c2ccc(OCC(=O)NCCNC)cc21 , what IC50 is on record?
2

For the compound CCn1c(CNC(=O)c2nc(Cl)cnc2N)[n+](CC)c2ccc(OCC(=O)N3CCC(N)CC3)cc21 , what IC50 is on record?
1
